Provide the recorded Covalent modification effect on the estrogen receptor ERα Y537S mutant-type for the entries that follow.
- test_target: estrogen receptor ERα Y537S mutant-type (Homo sapiens (Human), UniProt P03372, Y537S)
- Sequence (P03372 296-554 Y537S): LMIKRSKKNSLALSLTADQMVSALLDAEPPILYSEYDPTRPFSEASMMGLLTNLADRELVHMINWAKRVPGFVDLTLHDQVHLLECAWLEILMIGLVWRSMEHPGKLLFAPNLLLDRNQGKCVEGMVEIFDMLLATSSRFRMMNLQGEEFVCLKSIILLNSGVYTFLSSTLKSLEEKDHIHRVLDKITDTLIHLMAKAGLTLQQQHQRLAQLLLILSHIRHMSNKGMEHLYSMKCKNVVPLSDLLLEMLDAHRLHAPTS
- assay_text: Covalent modification of ERα Y537S mutant-type LBD by high-resolution mass spectrometry
- Assay type: binding
- experimental_conditions: after 24 hours; 2 μM protein, 10 μM compound, 4° C.
One number for each entry, in %.

Example cases with answers are listed next.
| compound | test_target | unit_abbreviation | result_number |
| --- | --- | --- | --- |
| CN(C)C(=O)/C=C/CN1CCC[C@@H](Oc2ccc(/C(=C(/CC(F)(F)F)c3ccc(S(C)(=O)=O)cc3)c3ccc4[nH]nc(F)c4c3)cn2)C1 [Example 23] | estrogen receptor ERα Y537S mutant-type (Homo sapiens (Human), UniProt P03372, Y537S) | % | 99 |
| CN(C)C(=O)/C=C/CNC1(COc2ccc(/C(=C(/CC(F)(F)F)c3ccccc3)c3ccc4[nH]nc(F)c4c3)cn2)CC1 [Example 39] | estrogen receptor ERα Y537S mutant-type (Homo sapiens (Human), UniProt P03372, Y537S) | % | 98 |
| O=C(/C=C/CNC1(COc2ccc(/C(=C(/CC(F)(F)F)c3ccccc3)c3ccc4[nH]nc(F)c4c3)cn2)CC1)N1CC(O)C1 [Example 40] | estrogen receptor ERα Y537S mutant-type (Homo sapiens (Human), UniProt P03372, Y537S) | % | 98 |
| CN(C)C(=O)/C=C/CN1CCC[C@@H](Oc2ccc(/C(=C(/CC(F)(F)F)c3ccc(F)cc3)c3ccc4[nH]nc(F)c4c3)cn2)C1 [Example 19] | estrogen receptor ERα Y537S mutant-type (Homo sapiens (Human), UniProt P03372, Y537S) | % | 97 |
| CN(C)C(=O)/C=C/CNC1(COc2ccc(/C(=C(/CC(F)(F)F)c3ccccc3)c3ccc4[nH]nc(F)c4c3)cn2)CCCCC1 [Example 8] | estrogen receptor ERα Y537S mutant-type (Homo sapiens (Human), UniProt P03372, Y537S) | % | 97 |

// query Using the record for O=C(/C=C/CN1CCC[C@@H](Oc2ccc(/C(=C(/CC(F)(F)F)c3ccccc3)c3ccc4[nH]nc(F)c4c3)cn2)C1)N1CCNCC1 [Example 18] , state its measured Covalent modification effect on the estrogen receptor ERα Y537S mutant-type.
// result 99

====

- Test system: MCF7 ERαY537S
- assay_text: Inhibition of proliferation of MCF7 cell expressing ERα Y537S mutant
- Format: cell-based
- experimental_conditions: Homo sapiens, 144 hours
- Source text: The mutants ERα Y537S and ERα D538G of human estrogen receptor α (ERαs) protein were obtained by site-directed mutagenesis using the cDNA of wild-type ESR1 gene (Accession No. NM000125) as a template according to double-primer PCR. The primer sequences used for mutagenesis are as follows (the nucleotides underlined are the sites of mutagenesis): The cDNA of mutant ESR1 was cloned into the target lentiviral vector pCDH-CMV-MCS-EF1-Puro (SBI, CD510B-1). […]
measured_attribute: pIC50
Numbers only, as −log10 of the molar value.

Example cases with answers are listed next.
| compound | pIC50 |
| --- | --- |
| CN(C)C(=O)/C=C/CN1CCC(Nc2ccc(/C(=C(/CC(F)(F)F)c3ccccc3)c3ccc4[nH]nc(F)c4c3)cn2)CC1 [Example 33] | 8.70 |
| O=C(/C=C/CNC1(COc2ccc(/C(=C(/CC(F)(F)F)c3ccccc3)c3ccc4[nH]nc(F)c4c3)cn2)CC1)N1CCO[C@@H](CO)C1 [Example 42] | 9.70 |

# batch size: 6; output pIC50 per entry
1. CN(C)C(=O)/C=C/CN[C@H]1CCN(c2ccc(/C(=C(/CC(F)(F)F)c3ccccc3)c3ccc4[nH]nc(F)c4c3)cn2)C1 [Example 35]
2. O=C(/C=C/CN1CCC[C@@H](Oc2ccc(/C(=C(/CC(F)(F)F)c3ccccc3)c3ccc4[nH]nc(F)c4c3)cn2)C1)N1CCOCC1 [Example 12]
3. CN(C)C(=O)/C=C/CN[C@@H]1CCN(c2ccc(/C(=C(/CC(F)(F)F)c3ccccc3)c3ccc4[nH]nc(F)c4c3)cn2)C1 [Example 34]
4. CN(C)C(=O)/C=C/CN1CCC(Oc2ccc(/C(=C(/CC(F)(F)F)c3ccccc3)c3ccc4[nH]nc(F)c4c3)cn2)CC1 [Example 9]
5. CN(C)C(=O)/C=C/CNC1(COc2ccc(/C(=C(/CC(F)(F)F)c3ccccc3)c3ccc4[nH]nc(F)c4c3)cn2)CCCC1 [Example 7]
6. O=C(/C=C/CNC1(COc2ccc(/C(=C(/CC(F)(F)F)c3ccccc3)c3ccc4[nH]nc(F)c4c3)cn2)CC1)N1CC(O)C1 [Example 40]

// result
1: 8.22; 2: 8.70; 3: 9.00; 4: 8.70; 5: 7.92; 6: 9.30

# batch size: 5; output pIC50 per entry
1. CC(C)(C)NC(=O)/C=C/CN1CCC[C@@H](Oc2ccc(/C(=C(/CC(F)(F)F)c3ccccc3)c3ccc4[nH]nc(F)c4c3)cn2)C1 [Example 16]
2. CC#CC(=O)N1CCC(Oc2ccc(/C(=C(/CC(F)(F)F)c3ccccc3)c3ccc4[nH]nc(F)c4c3)cn2)CC1 [Example 10]
3. CCN(C/C=C/C(=O)N(C)C)C1(COc2ccc(/C(=C(/CC(F)(F)F)c3ccccc3)c3ccc4[nH]nc(F)c4c3)cn2)CC1 [Example 6]
4. CN(C)C(=O)/C=C/CN(C)C1(COc2ccc(/C(=C(/CC(F)(F)F)c3ccccc3)c3ccc4[nH]nc(F)c4c3)cn2)CC1 [Example 5]
5. CC#CC(=O)N1CCC[C@@H](Oc2ccc(/C(=C(/CC(F)(F)F)c3ccccc3)c3ccc4[nH]nc(F)c4c3)cn2)C1 [Example 25]

// result
1: 8.40; 2: 8.15; 3: 9.00; 4: 9.52; 5: 9.00
